- Test system: EB-CTDNA adduct
- Test Name: EB/CTDNA fluorescence competition (quenching)
- Assay type: binding, calf
- Test Context: [DNA] 5 μM, [EB] 5 μM, complex 0-50 μM
The reader will find reported apparent DNA binding constant Kapp values listed item by item below.
Measure: apparent DNA binding constant Kapp

1) CCOC(=O)c1ccnc(-c2cc(C(=O)OCC)ccn2)c1.[Cl-].[Cl-].[Ru+2].c1ccccc1 :: 3.61 10^6 M^−1
2) COC(=O)c1ccnc(-c2cc(C(=O)OC)ccn2)c1.[Cl-].[Cl-].[Ru+2].c1ccccc1 :: 3.34 10^6 M^−1
3) CCOC(=O)c1ccnc(-c2cc(C(=O)OCC)ccn2)c1.Cc1ccc(C(C)C)cc1.[Cl-].[Cl-].[Ru+2] :: 3.18 10^6 M^−1
4) COC(=O)c1ccnc(-c2cc(C(=O)OC)ccn2)c1.Cc1ccc(C(C)C)cc1.[Cl-].[Cl-].[Ru+2] :: 3.02 10^6 M^−1

---

// reported IC50 for each item listed
- System: MCF-10a-breast epithelial cells
- Test Name: MTT cell proliferation assay, MCF-10a
- Type: cell-based, human
- Test Context: 24 h incubation; healthy cells
Measure: IC50

1) N.N.[Cl][Pt][Cl] [Cisplatin, reference compound] :: 29.1 µM
2) Cc1ccc(C(C)C)cc1.O=C(O)c1ccnc(-c2cc(C(=O)O)ccn2)c1.[Cl-].[Cl-].[Ru+2] [Complex 2, [Ru-η^6-p-cymene-(4,4′-(COOH)2bipy)Cl]Cl] :: > 50 µM
3) CCOC(=O)c1ccnc(-c2cc(C(=O)OCC)ccn2)c1.Cc1ccc(C(C)C)cc1.[Cl-].[Cl-].[Ru+2] :: 40.1 µM
4) COC(=O)c1ccnc(-c2cc(C(=O)OC)ccn2)c1.Cc1ccc(C(C)C)cc1.[Cl-].[Cl-].[Ru+2] :: > 50 µM
5) COC(=O)c1ccnc(-c2cc(C(=O)OC)ccn2)c1.[Cl-].[Cl-].[Ru+2].c1ccccc1 :: > 50 µM
6) CCOC(=O)c1ccnc(-c2cc(C(=O)OCC)ccn2)c1.[Cl-].[Cl-].[Ru+2].c1ccccc1 :: > 50 µM

---

molecules and their reported Log p Exp. Shake Flask
- Test Name: Shake-flask water-octanol Log p
- Test Context: n-octanol / water containing 0.45% sodium chloride, 0.5 mM, 37 °C
Measure: Log p Exp. Shake Flask

1. COC(=O)c1ccnc(-c2cc(C(=O)OC)ccn2)c1.[Cl-].[Cl-].[Ru+2].c1ccccc1 :: −1.12
2. CCOC(=O)c1ccnc(-c2cc(C(=O)OCC)ccn2)c1.Cc1ccc(C(C)C)cc1.[Cl-].[Cl-].[Ru+2] :: 0.88
3. Cc1ccc(C(C)C)cc1.O=C(O)c1ccnc(-c2cc(C(=O)O)ccn2)c1.[Cl-].[Cl-].[Ru+2] [Complex 2, [Ru-η^6-p-cymene-(4,4′-(COOH)2bipy)Cl]Cl] :: −1.65
4. CC(C)(C)c1ccnc(-c2cc(C(C)(C)C)ccn2)c1.[Cl-].[Cl-].[Ru+2].c1ccccc1 [Complex 5, [Ru-η^6-benzene-(4,4′-(C4H9)2bipy)Cl]Cl] :: 2.45
5. CCOC(=O)c1ccnc(-c2cc(C(=O)OCC)ccn2)c1.[Cl-].[Cl-].[Ru+2].c1ccccc1 :: −0.14

---

- Tested System: Bovine serum albumin (BSA) (Bos taurus, UniProt P02769)
- Construct: purchased Sigma Aldrich
- Sequence (P02769 25-607): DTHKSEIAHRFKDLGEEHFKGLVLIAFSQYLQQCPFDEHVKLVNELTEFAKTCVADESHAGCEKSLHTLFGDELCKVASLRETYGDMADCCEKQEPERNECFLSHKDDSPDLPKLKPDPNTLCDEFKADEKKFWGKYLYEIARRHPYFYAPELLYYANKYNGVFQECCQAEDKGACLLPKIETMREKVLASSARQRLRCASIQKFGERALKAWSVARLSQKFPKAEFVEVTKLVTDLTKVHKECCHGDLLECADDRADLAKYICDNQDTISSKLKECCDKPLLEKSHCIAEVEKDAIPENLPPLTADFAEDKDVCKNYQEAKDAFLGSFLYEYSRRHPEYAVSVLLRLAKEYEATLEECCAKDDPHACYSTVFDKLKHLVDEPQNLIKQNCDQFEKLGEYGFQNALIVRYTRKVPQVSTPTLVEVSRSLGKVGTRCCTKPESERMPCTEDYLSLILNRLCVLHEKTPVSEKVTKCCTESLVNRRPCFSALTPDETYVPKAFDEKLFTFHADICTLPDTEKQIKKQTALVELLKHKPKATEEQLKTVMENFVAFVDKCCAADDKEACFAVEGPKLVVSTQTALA
- Test Name: BSA fluorescence titration (Stern-Volmer, Scatchard)
- Type: binding
- Test Context: Scatchard equation
Measure: number of binding sites (n) on BSA

1. COC(=O)c1ccnc(-c2cc(C(=O)OC)ccn2)c1.[Cl-].[Cl-].[Ru+2].c1ccccc1 :: 1.0
2. Cc1ccc(C(C)C)cc1.O=C(O)c1ccnc(-c2cc(C(=O)O)ccn2)c1.[Cl-].[Cl-].[Ru+2] [Complex 2, [Ru-η^6-p-cymene-(4,4′-(COOH)2bipy)Cl]Cl] :: 1.2
3. COC(=O)c1ccnc(-c2cc(C(=O)OC)ccn2)c1.Cc1ccc(C(C)C)cc1.[Cl-].[Cl-].[Ru+2] :: 1.0
4. CCOC(=O)c1ccnc(-c2cc(C(=O)OCC)ccn2)c1.Cc1ccc(C(C)C)cc1.[Cl-].[Cl-].[Ru+2] :: 1.0
5. CCOC(=O)c1ccnc(-c2cc(C(=O)OCC)ccn2)c1.[Cl-].[Cl-].[Ru+2].c1ccccc1 :: 1.1
